system under test: T1, monomeric soluble human BTLA extracellular domain (BTLA K31-R151) (human, UniProt Q7Z6A9 31-151)
T1 construct: also called hBTLA; monomeric BTLA
T1 sequence (Q7Z6A9 31-151): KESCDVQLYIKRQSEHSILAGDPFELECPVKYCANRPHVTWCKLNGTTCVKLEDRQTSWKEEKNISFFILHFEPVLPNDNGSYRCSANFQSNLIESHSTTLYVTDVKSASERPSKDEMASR
test protocol: SPR 37C, mAb captured, BTLA ECD analyte;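 note: Anti-BTLA mouse antibodies captured on a sensor chip via polyclonal anti-mouse IgG, isotype control antibody in reference channel, rates fitted after reference and blank subtraction to derive Kd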
readout label: log10 of koff (log10 of the value in s⁻¹)

12F11 (antibody, IgG1, V domains shown, mIgG1) VH: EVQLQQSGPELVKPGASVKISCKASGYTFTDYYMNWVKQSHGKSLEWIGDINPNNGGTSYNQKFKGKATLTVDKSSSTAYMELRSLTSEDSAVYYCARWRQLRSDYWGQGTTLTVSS VL: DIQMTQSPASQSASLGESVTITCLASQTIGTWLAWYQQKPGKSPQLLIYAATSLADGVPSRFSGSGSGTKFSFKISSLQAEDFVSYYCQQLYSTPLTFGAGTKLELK	-0.81
6.2 (antibody, IgG1, V domains shown, mIgG1; also called clone 6.2; parent clone 6.2) VH: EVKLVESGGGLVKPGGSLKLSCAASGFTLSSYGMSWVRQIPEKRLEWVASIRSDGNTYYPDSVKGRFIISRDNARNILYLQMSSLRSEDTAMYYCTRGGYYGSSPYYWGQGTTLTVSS VL: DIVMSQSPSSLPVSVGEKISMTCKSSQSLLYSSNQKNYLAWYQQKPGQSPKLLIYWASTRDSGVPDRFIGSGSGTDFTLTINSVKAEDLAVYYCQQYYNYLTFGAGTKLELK	-2.97
15C6 (antibody, IgG1, V domains shown, mIgG1) VH: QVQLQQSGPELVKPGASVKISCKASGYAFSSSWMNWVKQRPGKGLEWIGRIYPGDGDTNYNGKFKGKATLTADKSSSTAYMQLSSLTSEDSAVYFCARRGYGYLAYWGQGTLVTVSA VL: DIVMTQSHKFMSTSVGDRVSITCKASQDVSTAVAWYQQKPGQSPKLLIYSASYRYTGVPDRFTGSGSGTDFTFTISSVQAEDLAVYYCQQHYSTPYTFGGGTKLEIK	-0.86
4H4 (antibody, IgG1, V domains shown, mIgG1) VH: QVQLQQSGAELARPGASVKLSCKASGYTFTSYGISWVKQRTGQGLEWIGEIYPRSGNTYYNEKFKGKATLTADKSSSTAYMELRSLTSEDSAVYFCARRRGAGDGFDYWGQGTTLTVSS VL: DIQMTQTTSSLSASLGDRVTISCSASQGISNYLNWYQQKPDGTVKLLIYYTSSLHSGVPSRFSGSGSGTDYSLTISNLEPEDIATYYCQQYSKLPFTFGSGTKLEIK	-0.46
4B1 (antibody, IgG1, V domains shown, mIgG1) VH: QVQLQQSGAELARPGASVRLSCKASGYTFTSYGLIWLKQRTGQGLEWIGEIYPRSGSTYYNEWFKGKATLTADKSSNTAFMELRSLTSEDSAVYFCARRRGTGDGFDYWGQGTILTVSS VL: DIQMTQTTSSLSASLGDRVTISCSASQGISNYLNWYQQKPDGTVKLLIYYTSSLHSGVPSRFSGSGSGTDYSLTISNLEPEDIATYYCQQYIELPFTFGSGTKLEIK	-2.73
